Provenance of the data: paper PMC9391306

target: PARP1 M686G/V687P (UniProt P09874 1-1014, M686G;V687P); experiment: fluorescence polarization
Sequence (P09874 whole entry M686G/V687P): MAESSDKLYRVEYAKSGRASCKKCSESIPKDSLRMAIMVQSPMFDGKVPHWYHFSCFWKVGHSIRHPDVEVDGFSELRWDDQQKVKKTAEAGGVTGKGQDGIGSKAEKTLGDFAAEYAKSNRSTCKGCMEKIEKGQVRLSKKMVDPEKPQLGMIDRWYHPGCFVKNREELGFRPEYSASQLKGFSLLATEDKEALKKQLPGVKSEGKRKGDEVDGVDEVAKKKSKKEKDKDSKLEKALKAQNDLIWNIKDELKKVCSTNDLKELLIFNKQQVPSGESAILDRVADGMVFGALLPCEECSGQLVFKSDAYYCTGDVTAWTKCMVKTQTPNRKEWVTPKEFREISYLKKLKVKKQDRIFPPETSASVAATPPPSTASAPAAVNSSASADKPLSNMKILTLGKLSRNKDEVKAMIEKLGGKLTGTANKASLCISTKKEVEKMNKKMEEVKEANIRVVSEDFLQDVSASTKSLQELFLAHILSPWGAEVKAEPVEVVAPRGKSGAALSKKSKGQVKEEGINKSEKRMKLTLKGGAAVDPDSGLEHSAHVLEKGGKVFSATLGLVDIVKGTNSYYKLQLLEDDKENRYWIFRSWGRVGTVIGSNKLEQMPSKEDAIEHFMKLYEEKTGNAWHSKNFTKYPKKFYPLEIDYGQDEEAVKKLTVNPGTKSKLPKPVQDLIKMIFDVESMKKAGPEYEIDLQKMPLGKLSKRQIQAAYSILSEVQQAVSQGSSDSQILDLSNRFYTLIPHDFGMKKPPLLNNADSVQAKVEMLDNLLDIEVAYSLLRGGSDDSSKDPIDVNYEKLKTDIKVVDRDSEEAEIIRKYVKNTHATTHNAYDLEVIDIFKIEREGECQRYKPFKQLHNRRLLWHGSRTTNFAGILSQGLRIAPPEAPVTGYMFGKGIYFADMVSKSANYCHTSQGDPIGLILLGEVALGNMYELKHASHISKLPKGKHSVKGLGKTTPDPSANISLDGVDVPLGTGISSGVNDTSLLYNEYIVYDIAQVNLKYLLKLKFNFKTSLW
pKd: −log10 of the molar value.

>  <binder>
18-bp DSB duplex (dsDNA) DNA 1: GGGTTGCGGCCGCTTGGG DNA 2: CCCAAGCGGCCGCAACCC

>  <pKd>
8.14

$$$$
